Recorded values, source PubChem BioAssay.

z-score values for the compounds below.
# protocol: basal S. cerevisiae growth modulation, no modifier, primary screen, OD600, strain BY4716, 24 h, basal condition (AID 1173)
# testConditions: OD600, 24 h, higher = more signal, called active from +8 up or from −8 down
Calls of active or inactive are those of the source.

Some solved entries appear below for comparison.
COc1cccc([C@H]2Oc3ccc(OC)cc3C(=NOC[C@@H](C)[C@H](OCc3ccccc3)C(C)C)[C@@H]2O)c1	0.635 (inactive)
CC(C)(C)N1C(=O)[C@H]2[C@H]3[C@H](O)[C@H](O)CC(=NOCc4ccccc4)[C@H]3CC[C@H]2C1=O	-0.565 (inactive)
COC(=O)CC=C[C@@H](C)[C@H](OCc1cccc(-c2ccccc2)c1)C1CCCCC1	-0.0348 (inactive)
CCOC(=O)[C@H](CC(C)C)NC(=O)CCC1CC(OC(=O)NCc2cccc3ccccc23)CC2(CCCC(COC(=O)NCc3ccncc3)O2)O1 (stereo partly specified)	-0.101 (inactive)
CCc1cc2c(nc1CC)CCN(CCC(C)=NO[C@@H](C)c1cn([C@H](CO)Cc3ccccc3)nn1)C2	-0.841 (inactive)
CC(C)=CCCC(C)=CCON=C1C[C@@H](O)[C@@H](O)[C@@H]2[C@@H]3C(=O)N(C(C)(C)C)C(=O)[C@@H]3CC[C@@H]12	-0.0139 (inactive)
CO[C@@H]1COC(=O)CC=C[C@H](C)[C@H](OC)COC(=O)[C@H](C)NC(=O)CC=C[C@H]1C	-0.486 (inactive)
CC(C)[C@@H](OCc1ccccc1)[C@H](C)C=NOC[C@@H](O)COCc1ccco1	-11.9 (active)
CO[C@H]1COC(=O)CCC[C@@H](C)[C@H](OC)COC(=O)[C@@H]2CCCN2C(=O)CC=C[C@@H]1C	-0.723 (inactive)
CCC1=NOC(CCC2CC(OC(=O)NCc3cccc4c3OCO4)CC3(CCCC(COC(=O)NCCc4ccccc4OC)O3)O2)C1 (stereo unspecified)	-0.101 (inactive)

[ask] Would you kindly share the measured z-score for CO[C@H]1COC(=O)[C@H](C)NC(=O)[C@@H](C)COC(=O)[C@H]2CCCN2C(=O)CC=C[C@H]1C ?
[reply] -0.739 (inactive)

[ask] Okay, and CC(C)CON=C1C[C@@H](O)[C@@H](O)[C@@H]2[C@@H]3C(=O)N(C(C)(C)C)C(=O)[C@@H]3CC[C@H]12 ?
[reply] 0.528 (inactive)

[ask] Okay, and COc1ccc(C#C[C@@H]2C=C[C@H](OC(C)=O)[C@@H](COC(C)=O)O2)cc1 ?
[reply] -1.59 (inactive)

[ask] Okay, and CCOC(=O)[C@H](CC(C)C)NC(=O)CCC1CC(OC(=O)NCCc2ccc(F)cc2)CC2(CCCC(COC(=O)NCC(c3ccccc3)c3ccccc3)O2)O1 (stereo partly specified) ?
[reply] -0.227 (inactive)

[ask] Okay, and CCN1C(=O)[C@H]2[C@H]3[C@H](O)[C@H](O)CC(=O)[C@@H]3CC[C@H]2C1=O ?
[reply] -0.553 (inactive)

[ask] Okay, and CCCCc1nc2c(c3c1C[C@H](C)OC3)CN(CCOc1ccccc1)CC2 ?
[reply] -3.28 (inactive)

[ask] Okay, and CCOC(=O)[C@H](Cc1ccccc1)NC(=O)CCC1CC(OC(=O)NCc2cccc3ccccc23)CC2(CCCC(COC(=O)NCc3ccccc3)O2)O1 (stereo partly specified) ?
[reply] -2.55 (inactive)

[ask] Okay, and COc1ccc(O[C@H]2C=C[C@@H](c3ccccc3)O[C@@H]2COC(=O)CCC(C)=NOC(C)CN2CCCc3nc(C)c(C)cc32)cc1 (stereo partly specified) ?
[reply] -0.729 (inactive)

[ask] Okay, and COC(=O)CC=C[C@@H](C)[C@@H](C=NO[C@@H](C)c1cn([C@H](CO)Cc2ccccc2)nn1)OC ?
[reply] -0.966 (inactive)

[ask] Okay, and O=C(NN=C1C[C@@H](O)[C@@H](O)[C@@H]2[C@@H]3C(=O)N(C[C@@H]4CCCO4)C(=O)[C@@H]3CC[C@H]12)OCc1ccccc1 ?
[reply] 0.267 (inactive)

[ask] Okay, and CO[C@@H]1COC(=O)CC=C[C@@H](C)[C@H](OC)COC(=O)[C@@H](C)COC(=O)CC=C[C@H]1C ?
[reply] -0.621 (inactive)

[ask] Okay, and C[C@@H]1CC[C@H]2C(=O)O[C@@H](COc3ccc(C(C)(C)C)cc3)CN2[C@@H]1c1ccc(Br)cc1 ?
[reply] -0.752 (inactive)

[ask] Okay, and CO[C@H]1COC(=O)CC=C[C@H](C)[C@@H](OC)COC(=O)[C@@H](C)NC(=O)CC=C[C@@H]1C ?
[reply] -0.774 (inactive)

[ask] Okay, and COC(=O)CC=C[C@@H](C)[C@@H](C=NOC[C@H]1O[C@H](c2ccccc2)C=C[C@@H]1Oc1ccc(OC)cc1)OC ?
[reply] 0.805 (inactive)

[ask] Okay, and CCO[C@H](c1cc(OC)cc([N+](=O)[O-])c1OC)[C@H](C)C=CCC(=O)OC ?
[reply] -2.19 (inactive)

[ask] Okay, and COc1cccc([C@H]2Oc3ccc(OC)cc3C(=NO[C@H](C)c3cn([C@H](CO)Cc4ccccc4)nn3)[C@@H]2O)c1 ?
[reply] 0.723 (inactive)

[ask] Okay, and C#CCCCON=C1C[C@@H](O)[C@@H](O)[C@@H]2[C@@H]3C(=O)N(C(C)(C)C)C(=O)[C@@H]3CC[C@H]12 ?
[reply] 0.522 (inactive)

[ask] Okay, and O=C1C=C[C@@H](O)[C@@H]2[C@@H]3C(=O)N(C[C@@H]4CCCO4)C(=O)[C@@H]3CC[C@@H]12 ?
[reply] 0.499 (inactive)
